Origin of values: patent US10058533B2

Property: aPPT; scope: individual compounds
# System: coagulation function (aPTT)
# protocol: aPTT of coagulation function, rabbit wound-limb deep venous thrombosis forming model
# Type: in vivo
# cond: 5 mg/kg i.g., 3 h after administration, x ± SD
experimentalReadout: aPPT (s)

[[record]]
compound = "CN(C)Cc1nccn1-c1ccc(NC(=O)c2cc(C(F)(F)F)nn2-c2ccc3onc(N)c3c2)c(F)c1 [Razaxaban]"
experimentalreadout = "aPPT"
reportedresult = 35.75

[[record]]
compound = "COc1ccc(-n2nc(C(N)=O)c3c2C(=O)N(c2ccc(N4CCCCC4=O)cc2)CC3)cc1 [Apixaban]"
experimentalreadout = "aPPT"
reportedresult = 31.71

[[record]]
compound = "O=C(NC[C@H]1CN(c2ccc(N3CCOCC3=O)cc2)C(=O)O1)c1ccc(Cl)s1 [Rivaroxaban]"
experimentalreadout = "aPPT"
reportedresult = 35.92

[[record]]
compound = "CC1C(=O)OC2C(O)C34C5CC(C(C)(C)C)C36C(OC(=O)C6O)OC4(C(=O)O5)C12O (centres unmarked) [Ginkgolide B]"
experimentalreadout = "aPPT"
reportedresult = 34.30

[[record]]
compound = "CN1CCc2nc(C(=O)N[C@@H]3C[C@@H](C(=O)N(C)C)CC[C@@H]3NC(=O)C(=O)Nc3ccc(Cl)cn3)sc2C1 [Edoxaban]"
experimentalreadout = "aPPT"
reportedresult = 36.47


====

# Test system: coagulation function (aPTT)
# protocol: aPTT of coagulation function, rabbit wound-limb deep venous thrombosis forming model
# Format: in vivo
# cond: 5 mg/kg i.g., 0.5 h after administration, x ± SD
experimentalReadout: aPPT (s)

[[record]]
compound = "CN1CCc2nc(C(=O)N[C@@H]3C[C@@H](C(=O)N(C)C)CC[C@@H]3NC(=O)C(=O)Nc3ccc(Cl)cn3)sc2C1"
reportedresult = 26.77

[[record]]
compound = "COc1ccc(-n2nc(C(N)=O)c3c2C(=O)N(c2ccc(N4CCCCC4=O)cc2)CC3)cc1"
reportedresult = 19.05

[[record]]
compound = "CN(C)Cc1nccn1-c1ccc(NC(=O)c2cc(C(F)(F)F)nn2-c2ccc3onc(N)c3c2)c(F)c1"
reportedresult = 20.13

[[record]]
compound = "O=C(NC[C@H]1CN(c2ccc(N3CCOCC3=O)cc2)C(=O)O1)c1ccc(Cl)s1"
reportedresult = 27.89

[[record]]
compound = "CC1C(=O)OC2C(O)C34C5CC(C(C)(C)C)C36C(OC(=O)C6O)OC4(C(=O)O5)C12O (centres unmarked) [Ginkgolide B]"
reportedresult = 25.89


====

# Tested on: factor Xa
# protocol: Plasma anti-factor Xa activity, rabbit wound-limb deep venous thrombosis forming model
# Assay type: in vivo
# cond: plasma, 5 mg/kg i.g., 2 h after administration, x ± SD
# Description: Eight were taken as control group and the rest were treated by a striking device. Striking area was a round surface with the diameter of 1.5 cm, the wounding energy was calculated according to Ep=mgh, and the energy of each striking of the iron rod is 7.5 J. […] At 0.5, 1.0, 2.0, 3.0 and 4.0 h after the first administration, blood was taken from ear central artery. Plasma was separated and aPPT, PT and the anti-factor Xa activity were determined on an automatic coagulation detector.
Measured anti-factor Xa activity by item
experimentalReadout: anti-factor Xa activity (IU/ml)

[[record]]
compound = "CN(C)Cc1nccn1-c1ccc(NC(=O)c2cc(C(F)(F)F)nn2-c2ccc3onc(N)c3c2)c(F)c1 [Razaxaban]"
subjectoftest = "factor Xa"
experimentalreadout = "anti-factor Xa activity"
reportedresult = 0.23

[[record]]
compound = "CC1C(=O)OC2C(O)C34C5CC(C(C)(C)C)C36C(OC(=O)C6O)OC4(C(=O)O5)C12O (stereo not shown) [Ginkgolide B]"
subjectoftest = "factor Xa"
experimentalreadout = "anti-factor Xa activity"
reportedresult = 0.35

[[record]]
compound = "O=C(NC[C@H]1CN(c2ccc(N3CCOCC3=O)cc2)C(=O)O1)c1ccc(Cl)s1 [Rivaroxaban]"
subjectoftest = "factor Xa"
experimentalreadout = "anti-factor Xa activity"
reportedresult = 0.18

[[record]]
compound = "COc1ccc(-n2nc(C(N)=O)c3c2C(=O)N(c2ccc(N4CCCCC4=O)cc2)CC3)cc1 [Apixaban]"
subjectoftest = "factor Xa"
experimentalreadout = "anti-factor Xa activity"
reportedresult = 0.25


====

# reported aPPT; entries follow
# Test system: coagulation function (aPTT)
# protocol: aPTT of coagulation function, rabbit wound-limb deep venous thrombosis forming model
# Format: in vivo
# cond: 5 mg/kg i.g., 4 h after administration, x ± SD
experimentalReadout: aPPT (s)

[[record]]
molecule = "CN(C)Cc1nccn1-c1ccc(NC(=O)c2cc(C(F)(F)F)nn2-c2ccc3onc(N)c3c2)c(F)c1 [Razaxaban]"
reportedresult = 29.65

[[record]]
molecule = "CN1CCc2nc(C(=O)N[C@@H]3C[C@@H](C(=O)N(C)C)CC[C@@H]3NC(=O)C(=O)Nc3ccc(Cl)cn3)sc2C1 [Edoxaban]"
reportedresult = 27.20

[[record]]
molecule = "O=C(NC[C@H]1CN(c2ccc(N3CCOCC3=O)cc2)C(=O)O1)c1ccc(Cl)s1 [Rivaroxaban]"
reportedresult = 29.20

[[record]]
molecule = "COc1ccc(-n2nc(C(N)=O)c3c2C(=O)N(c2ccc(N4CCCCC4=O)cc2)CC3)cc1 [Apixaban]"
reportedresult = 29.21

[[record]]
molecule = "CC1C(=O)OC2C(O)C34C5CC(C(C)(C)C)C36C(OC(=O)C6O)OC4(C(=O)O5)C12O (centres unmarked) [Ginkgolide B]"
reportedresult = 31.92


====

# Tested on: PAF (Platelet activating factor)
# protocol: Plasma PAF content by ELISA, rabbit wound-limb deep venous thrombosis forming model
# Format: in vivo
# cond: 1 h after administration; rabbit wound-limb deep venous thrombosis model; *p<0.05, **p<0.01, ***p<0.001 vs model group
Quick reference for PAF content (x ± SD) among some molecules
experimentalReadout: PAF content (x ± SD) (ng/L)

[[record]]
molecule = "CN1CCc2nc(C(=O)N[C@@H]3C[C@@H](C(=O)N(C)C)CC[C@@H]3NC(=O)C(=O)Nc3ccc(Cl)cn3)sc2C1"
subjectoftest = "PAF (Platelet activating factor)"
unitname = "ng/L"
reportedresult = 1236.72

[[record]]
molecule = "O=C(NC[C@H]1CN(c2ccc(N3CCOCC3=O)cc2)C(=O)O1)c1ccc(Cl)s1"
subjectoftest = "PAF (Platelet activating factor)"
unitname = "ng/L"
reportedresult = 1484.29

[[record]]
molecule = "CC1C(=O)OC2C(O)C34C5CC(C(C)(C)C)C36C(OC(=O)C6O)OC4(C(=O)O5)C12O (centres unmarked) [Ginkgolide B]"
subjectoftest = "PAF (Platelet activating factor)"
unitname = "ng/L"
reportedresult = 1255.71

[[record]]
molecule = "CN(C)Cc1nccn1-c1ccc(NC(=O)c2cc(C(F)(F)F)nn2-c2ccc3onc(N)c3c2)c(F)c1"
subjectoftest = "PAF (Platelet activating factor)"
unitname = "ng/L"
reportedresult = 1501.29

[[record]]
molecule = "COc1ccc(-n2nc(C(N)=O)c3c2C(=O)N(c2ccc(N4CCCCC4=O)cc2)CC3)cc1"
subjectoftest = "PAF (Platelet activating factor)"
unitname = "ng/L"
reportedresult = 1543.57


====

# System: factor Xa
# protocol: Plasma anti-factor Xa activity, rabbit wound-limb deep venous thrombosis forming model
# Assay type: in vivo
# cond: plasma, 5 mg/kg i.g., 4 h after administration, x ± SD
experimentalReadout: anti-factor Xa activity (IU/ml)

[[record]]
compound = "CN(C)Cc1nccn1-c1ccc(NC(=O)c2cc(C(F)(F)F)nn2-c2ccc3onc(N)c3c2)c(F)c1 [Razaxaban]"
experimentalreadout = "anti-factor Xa activity"
reportedresult = 1.32

[[record]]
compound = "O=C(NC[C@H]1CN(c2ccc(N3CCOCC3=O)cc2)C(=O)O1)c1ccc(Cl)s1 [Rivaroxaban]"
experimentalreadout = "anti-factor Xa activity"
reportedresult = 1.38

[[record]]
compound = "CC1C(=O)OC2C(O)C34C5CC(C(C)(C)C)C36C(OC(=O)C6O)OC4(C(=O)O5)C12O (stereo not shown) [Ginkgolide B]"
experimentalreadout = "anti-factor Xa activity"
reportedresult = 0.65

[[record]]
compound = "COc1ccc(-n2nc(C(N)=O)c3c2C(=O)N(c2ccc(N4CCCCC4=O)cc2)CC3)cc1 [Apixaban]"
experimentalreadout = "anti-factor Xa activity"
reportedresult = 1.12


====

Each entry below carries its reported PT.
# Test system: coagulation function (PT)
# protocol: PT of coagulation function, rabbit wound-limb deep venous thrombosis forming model
# Format: in vivo
# cond: 5 mg/kg i.g., 2 h after administration, x ± SD
experimentalReadout: PT (s)

[[record]]
compound = "CC1C(=O)OC2C(O)C34C5CC(C(C)(C)C)C36C(OC(=O)C6O)OC4(C(=O)O5)C12O (stereo not shown) [Ginkgolide B]"
subjectoftest = "coagulation function (PT)"
experimentalreadout = "PT"
reportedresult = 6.75

[[record]]
compound = "CN1CCc2nc(C(=O)N[C@@H]3C[C@@H](C(=O)N(C)C)CC[C@@H]3NC(=O)C(=O)Nc3ccc(Cl)cn3)sc2C1"
subjectoftest = "coagulation function (PT)"
experimentalreadout = "PT"
reportedresult = 6.28

[[record]]
compound = "CN(C)Cc1nccn1-c1ccc(NC(=O)c2cc(C(F)(F)F)nn2-c2ccc3onc(N)c3c2)c(F)c1"
subjectoftest = "coagulation function (PT)"
experimentalreadout = "PT"
reportedresult = 6.47

[[record]]
compound = "O=C(NC[C@H]1CN(c2ccc(N3CCOCC3=O)cc2)C(=O)O1)c1ccc(Cl)s1"
subjectoftest = "coagulation function (PT)"
experimentalreadout = "PT"
reportedresult = 6.90

